This collection of values is drawn from patent US12673961B2.

Quick reference for AC50 among some compounds
Target: human PAH with the R408W mutation (Homo sapiens, UniProt P00439, R408W)
Construct: expressed in transfected cells
Sequence (P00439 1-452 R408W): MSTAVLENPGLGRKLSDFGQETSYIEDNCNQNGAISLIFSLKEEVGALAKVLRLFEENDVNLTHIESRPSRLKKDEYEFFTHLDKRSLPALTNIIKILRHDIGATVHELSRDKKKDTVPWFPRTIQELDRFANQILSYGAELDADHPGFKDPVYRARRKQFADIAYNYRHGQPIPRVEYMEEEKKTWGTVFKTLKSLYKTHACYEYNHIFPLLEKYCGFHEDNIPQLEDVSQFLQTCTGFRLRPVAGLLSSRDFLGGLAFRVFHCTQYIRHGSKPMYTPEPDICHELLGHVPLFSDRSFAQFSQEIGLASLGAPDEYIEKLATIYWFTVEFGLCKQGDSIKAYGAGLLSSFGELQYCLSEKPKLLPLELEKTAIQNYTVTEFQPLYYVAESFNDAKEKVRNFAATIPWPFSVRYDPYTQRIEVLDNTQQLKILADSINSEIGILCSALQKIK
Experiment: Cell Based Phenylalanine Flux Assay
Settings: A375 cells expressing human R408W PAH; 24 hrs with compound, then sepiapterin and 13C9,15N-Phenylalanine for 4 hours; 13C-Tyrosine by LC-MS; average where tested multiple times; read-out: AC50

Some entries whose results are on file:
| mol | AC50 |
| --- | --- |
| Cc1cccn2nc([C@H]3c4nc[nH]c4CCN3C(=O)c3nnc(-c4ccccn4)s3)cc12 | > 5000 nM |
| CC(C)(F)c1nnc(C(=O)N2CCc3[nH]cnc3[C@@H]2c2cc3cccc(C(F)F)n3n2)o1 | 1000 to 5000 nM |
| O=C(c1nnc(C2CC(F)(F)C2)o1)N1CCc2[nH]cnc2[C@@H]1c1cc2c(Cl)cccn2n1 | 1000 to 5000 nM |
| CN(C)c1ccc2c(C(=O)N3CCc4[nH]cnc4[C@H]3c3cc4c(C(F)(F)F)cccn4n3)cnn2c1 | < 500 nM |

Lab note: record AC50 of O=C(c1cnn2cc(C3CC3)ccc12)N1CCc2[nH]cnc2[C@@H]1c1cc2c(F)cccn2n1 tested on human PAH with the R408W mutation (Homo sapiens, UniProt P00439, R408W).
> 5000 nM

Lab note: record AC50 of FC(F)(F)c1cccn2nc([C@H]3c4nc[nH]c4CCN3c3ncccn3)cc12 tested on human PAH with the R408W mutation (Homo sapiens, UniProt P00439, R408W).
1000 to 5000 nM

Lab note: record AC50 of Cc1cccc(-c2nnc(C(=O)N3CCc4[nH]cnc4[C@H]3c3cc4c(C(F)(F)F)cccn4n3)o2)n1 tested on human PAH with the R408W mutation (Homo sapiens, UniProt P00439, R408W).
< 500 nM

###

Quick reference for AC50 among some molecules
Biological target: human PAH with the R408W mutation (Homo sapiens, UniProt P00439, R408W)
Construct: expressed in transfected cells
Sequence (P00439 1-452 R408W): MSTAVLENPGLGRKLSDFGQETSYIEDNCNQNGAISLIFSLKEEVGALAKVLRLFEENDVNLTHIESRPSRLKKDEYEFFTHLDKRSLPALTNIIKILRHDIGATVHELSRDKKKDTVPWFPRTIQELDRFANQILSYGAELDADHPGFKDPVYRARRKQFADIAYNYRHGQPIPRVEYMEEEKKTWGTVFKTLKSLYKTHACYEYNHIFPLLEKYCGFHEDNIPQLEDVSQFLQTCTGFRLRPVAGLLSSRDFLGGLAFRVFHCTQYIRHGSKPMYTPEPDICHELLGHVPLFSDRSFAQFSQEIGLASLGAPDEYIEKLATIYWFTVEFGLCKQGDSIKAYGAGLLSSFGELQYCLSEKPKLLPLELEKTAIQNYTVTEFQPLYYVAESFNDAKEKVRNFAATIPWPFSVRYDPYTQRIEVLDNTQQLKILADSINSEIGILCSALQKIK
Test: Cell Based Phenylalanine Flux Assay;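 also: Ten-point dose curve from 2-fold serial dilutions, run in duplicate at 0.5% DMSO final, tracer step used 20 µM sepiapterin and 800 µM labeled phenylalanine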
Settings: A375 cells expressing human R408W PAH; 24 hrs compound incubation; 13C-Tyrosine by LC-MS; average where tested multiple times; read-out: AC50

Some entries whose results are on file:
| molecule | subject_of_test | AC50 |
| --- | --- | --- |
| Cn1ccc(-c2nnc(C(=O)N3CCc4[nH]cnc4[C@H]3c3cc4c(F)cccn4n3)o2)n1 [Example 730] | human PAH with the R408W mutation (Homo sapiens, UniProt P00439, R408W) | < 0.5 µM |
| Cc1cccn2nc([C@H]3c4nc[nH]c4CCN3C(=O)c3nnc(C(C)(C)C)o3)cc12 [Example 1023] | human PAH with the R408W mutation (Homo sapiens, UniProt P00439, R408W) | > 5 µM |
| O=C(c1nnc(-c2ccn(C(F)F)n2)o1)N1CCc2[nH]cnc2[C@@H]1c1cc2c(C(F)F)cccn2n1 [Example 1376] | human PAH with the R408W mutation (Homo sapiens, UniProt P00439, R408W) | > 5 µM |
| Cc1cccn2nc([C@H]3c4nc[nH]c4CCN3C(=O)c3nnc(-c4ccc(F)cn4)o3)cc12 [Example 874] | human PAH with the R408W mutation (Homo sapiens, UniProt P00439, R408W) | > 5 µM |
| N#Cc1ncoc1C(=O)N1CCc2[nH]cnc2[C@@H]1c1cc2ccccn2n1 (single isomer, unassigned) [Example 641] | human PAH with the R408W mutation (Homo sapiens, UniProt P00439, R408W) | > 5 µM |

Lab note: record AC50 of O=C(c1nnc(-c2cnn(C(F)F)c2)o1)N1CCc2[nH]cnc2[C@H]1c1cc2cccc(F)n2n1 [Example 984] tested on human PAH with the R408W mutation (Homo sapiens, UniProt P00439, R408W).
0.5 to 1 µM

Lab note: record AC50 of CC(C)(O)c1nc(C(F)F)c(C(=O)N2CCc3[nH]cnc3[C@@H]2c2cc3ccc(C(F)(F)F)cn3n2)o1 [Example 1117] tested on human PAH with the R408W mutation (Homo sapiens, UniProt P00439, R408W).
> 5 µM
